# System: IL 1-induced release of neutral protease from rabbit articular chondrocytes
# Assay procedure: Inhibition of IL 1-induced release of neutral protease from rabbit articular chondrocytes (% inhibition of protease secretion, azocoll degradation)
# Format: cell-based, rabbit (male New Zealand White)
# Conditions: Oryctolagus cuniculus, Chondrocyte; dose 5 μM; test compound 10 minutes prior to IL 1; 24 hours after IL 1 stimulation
Measurement name: inhibition at 5 µM (%)
# unit: % | format: bare number

Answered examples (6):
compound=O=S1(=O)CCc2nc3cc(Cl)ccc3c(NNc3ccccc3)c2C1 target_entity="IL 1-induced release of neutral protease from rabbit articular chondrocytes" unit_tag=% value_measured=37
compound=O=S1(=O)CCc2nc3ccccc3c(Cl)c2C1 target_entity="IL 1-induced release of neutral protease from rabbit articular chondrocytes" unit_tag=% value_measured=19
compound=O=S1(=O)CCc2nc3cc(Cl)ccc3c(Cl)c2C1 target_entity="IL 1-induced release of neutral protease from rabbit articular chondrocytes" unit_tag=% value_measured=26
compound="COC(=O)C1CCc2nc3cc(Cl)ccc3c(Cl)c2C1 (stereo not shown)" target_entity="IL 1-induced release of neutral protease from rabbit articular chondrocytes" unit_tag=% value_measured=53
compound=Clc1c2c(nc3ccccc13)CCSC2 target_entity="IL 1-induced release of neutral protease from rabbit articular chondrocytes" unit_tag=% value_measured=46
compound=Clc1ccc2c(NNc3ccccc3)c3c(nc2c1)CCSC3 target_entity="IL 1-induced release of neutral protease from rabbit articular chondrocytes" unit_tag=% value_measured=93

Now consider the entry below.
Exercise: Could you tell me which inhibition at 5 µM is on file for c1ccc(NNc2c3c(nc4ccccc24)CCSC3)cc1 [Example 5, hydrate] ?
Key: 55

Sourced from patent US4851536A
